target: human 5-HT6 (Homo sapiens); construct: expressed in transfected cells; assay: Functional evaluation, cAMP (LANCE Ultra) in HEK293 cells; assay type: cell-based; conditions: antagonist mode, cAMP induced by 5-CT 1000 nM
Sequence (P50406 whole entry): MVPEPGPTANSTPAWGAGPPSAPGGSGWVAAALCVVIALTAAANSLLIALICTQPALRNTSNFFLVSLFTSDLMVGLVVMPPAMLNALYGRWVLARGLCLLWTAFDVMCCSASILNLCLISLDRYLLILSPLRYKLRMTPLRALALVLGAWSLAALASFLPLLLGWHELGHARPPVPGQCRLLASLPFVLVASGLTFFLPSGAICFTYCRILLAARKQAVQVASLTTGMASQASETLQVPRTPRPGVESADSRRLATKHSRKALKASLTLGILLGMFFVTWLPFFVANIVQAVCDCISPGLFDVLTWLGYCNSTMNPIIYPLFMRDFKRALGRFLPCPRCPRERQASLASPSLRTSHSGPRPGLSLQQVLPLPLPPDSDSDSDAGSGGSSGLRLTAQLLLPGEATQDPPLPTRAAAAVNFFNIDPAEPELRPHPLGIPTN
Answer each item with its documented Kb.
// note: answer is a bare numeric in nM

Which Kb is reported for this molecule? CC1NC(NS(=O)(=O)c2cccc3ccccc23)=Nc2cccc(Cl)c21 (stereo not shown)
79

Moving on to `O=S(=O)(NC1=Nc2c(Cl)cccc2CN1)c1cccc2ccccc12`
81

Moving on to CC1NC(NS(=O)(=O)c2cccc3ccccc23)=Nc2cccc(F)c21 (stereo not shown)
134

Moving on to CC1NC(NS(=O)(=O)c2cccc3ccccc23)=Nc2c(Cl)cccc21 (stereo not shown)
35

---

system: HSA and AGP (24:1); assay: Plasma protein binding, TRANSIL XL PPB assay; conditions: human, TRANSIL XL PPB assay: HSA and AGP in a 24:1 ratio
experimental.readout: Kd at 12 min, 20 µM (nM)
// note: answer is a bare numeric in nM

Which Kd at 12 min, 20 µM is reported for this molecule? CC1NC(NS(=O)(=O)c2cccc3ccccc23)=Nc2cccc(Cl)c21 (stereo not shown)
1400

---

target: human serum albumin (HSA) (Homo sapiens, UniProt P02768); assay: Binding to HSA, Chiralpak HSA column; settings: Chiralpak HSA column
Sequence (P02768 25-609): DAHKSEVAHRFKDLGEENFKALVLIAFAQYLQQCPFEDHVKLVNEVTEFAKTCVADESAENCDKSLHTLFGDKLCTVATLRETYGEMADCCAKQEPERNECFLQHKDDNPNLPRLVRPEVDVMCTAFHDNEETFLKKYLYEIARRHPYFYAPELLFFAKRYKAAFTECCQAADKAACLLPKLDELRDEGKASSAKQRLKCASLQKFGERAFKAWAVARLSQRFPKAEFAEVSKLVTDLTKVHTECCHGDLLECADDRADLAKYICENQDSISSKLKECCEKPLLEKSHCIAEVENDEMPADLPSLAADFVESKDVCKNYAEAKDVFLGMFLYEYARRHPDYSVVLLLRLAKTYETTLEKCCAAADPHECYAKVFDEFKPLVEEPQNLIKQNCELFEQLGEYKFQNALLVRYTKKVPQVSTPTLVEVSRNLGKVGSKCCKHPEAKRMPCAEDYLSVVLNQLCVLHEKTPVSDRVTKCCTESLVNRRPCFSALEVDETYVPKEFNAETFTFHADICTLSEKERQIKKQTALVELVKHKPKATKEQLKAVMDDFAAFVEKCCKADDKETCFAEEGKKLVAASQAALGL
Answer each item with its documented %HSA.
// note: answer is a bare numeric in %

Which %HSA is reported for this compound? CC1OC(NS(=O)(=O)c2cccc3ccccc23)=Nc2ccccc21 (stereo not drawn)
95.9

Moving on to CC1NC(NS(=O)(=O)c2cccc3ccccc23)=Nc2ccc(Br)cc21 (stereo not drawn)
98.3

Moving on to `O=S(=O)(NC1=Nc2ccc(Cl)cc2CN1)c1cccc2ccccc12`
97.8

Moving on to `O=S(=O)(NC1=Nc2ccccc2CN1)c1c(Cl)ccc2ccccc12`
97.1

Moving on to `O=S(=O)(NC1=Nc2ccccc2CN1)c1ccc(Cl)c2ccccc12`
97.9

Moving on to CC1NC(NS(=O)(=O)c2cccc3ccccc23)=Nc2cccc(F)c21 (stereo not drawn)
96.6

Moving on to `Nc1nc2ccccc2n1S(=O)(=O)c1cccc2cccnc12`
94.3

Moving on to `Cc1cccc2c1CNC(NS(=O)(=O)c1cccc3ccccc13)=N2`
97.3

Moving on to CC1NC(NS(=O)(=O)c2cccc3ccccc23)=Nc2cccc(Cl)c21 (stereo not drawn)
97.7

Moving on to CN1CCN2c3ccccc3Cc3ccccc3C2C1 (stereo not drawn) [Mianserin, reference compound]
90.9

Moving on to `COc1cccc2c1CNC(NS(=O)(=O)c1cccc3ccccc13)=N2`
97.3

Moving on to `O=S(=O)(NC1=Nc2ccccc2CN1)c1cccc(Cl)c1`
91.3

Moving on to `O=S(=O)(NC1=Nc2ccccc2CN1)c1ccc(OC(F)(F)F)cc1`
93.7

Moving on to `O=S(=O)(NC1=Nc2cccc(Cl)c2CN1)c1ccc(Cl)c2ccccc12`
99.5

Moving on to CC1NC(NS(=O)(=O)c2cccc3ccccc23)=Nc2c(Cl)cccc21 (stereo not drawn)
97.5

Moving on to `O=S(=O)(Nc1nc2ccccc2[nH]1)c1cccc2ccccc12`
95.7

Moving on to `O=S(=O)(NC1=Nc2ccccc2CN1)c1cccc2cc(Cl)ccc12`
98.3

Moving on to CN1CCN2c3ncccc3Cc3ccccc3C2C1 (stereo not drawn) [Mirtazapine, reference compound]
76.9

Moving on to CC1NC(NS(=O)(=O)c2ccc(Cl)c3ccccc23)=Nc2c(Cl)cc(Cl)cc21 (stereo not drawn)
99.9

Moving on to `O=S(=O)(NC1=Nc2cccc(F)c2CN1)c1cccc2ccccc12`
96.4

Moving on to `O=S(=O)(NC1=Nc2c(Cl)cc(Cl)cc2CN1)c1cccc2ccccc12`
99.0

---

tested on: HEK293; assay: Cytotoxic activity on HEK293; type: cell-based; details: Homo sapiens
Answer each item with its documented pIC50.
Field pIC50 (float): negative decimal logarithm of the concentration in molar.

Which pIC50 is reported for this compound? `O=S(=O)(NC1=Nc2c(Cl)cccc2CN1)c1cccc2ccccc12`
4.41

Moving on to CC1NC(NS(=O)(=O)c2cccc3ccccc23)=Nc2cccc(Cl)c21 (centres unmarked)
4.09

---

test: Affinity to phospholipids, IAM column (CHI IAM); type: physicochemical; conditions: IAM.PC.DD2 column, pH 7.4
Assign class by CHI IAM: not lower than 40 means label 1; lower than 40 means label 0.

Dear colleague, could you confirm whether `Cc1cccc2c1CNC(NS(=O)(=O)c1cccc3ccccc13)=N2` has CHI IAM at or above 40?
label 1

Moving on to `O=S(=O)(NC1=Nc2ccc(Cl)cc2CN1)c1cccc2ccccc12`
label 1

Moving on to CC1NC(NS(=O)(=O)c2cccc3ccccc23)=Nc2cccc(Cl)c21 (stereo not shown)
label 1

Moving on to `COc1cccc(S(=O)(=O)NC2=Nc3ccccc3CN2)c1`
label 0

Moving on to `O=S(=O)(NC1=Nc2cccc(Cl)c2CN1)c1ccc(Cl)c2ccccc12`
label 1

Moving on to CC1NC(NS(=O)(=O)c2ccc(Cl)c3ccccc23)=Nc2c(Cl)cc(Cl)cc21 (stereo not shown)
label 1

Moving on to `O=S(=O)(NC1=Nc2ccccc2CN1)c1ccc(Cl)c2ccccc12`
label 1

Moving on to `COc1ccc2c(c1)CNC(NS(=O)(=O)c1cccc3ccccc13)=N2`
label 0

Moving on to `O=S(=O)(NC1=Nc2ccccc2CN1)c1ccc2c(Cl)cccc2c1`
label 1

Moving on to `O=S(=O)(NC1=Nc2ccccc2CN1)c1cccc2cc(Cl)ccc12`
label 1

Moving on to CC1NC(NS(=O)(=O)c2cccc3ccccc23)=Nc2c(Cl)cc(Cl)cc21 (stereo not shown)
label 1

Moving on to `O=S(=O)(NC1=Nc2ccccc2CN1)c1c(Cl)ccc2ccccc12`
label 1

Moving on to `O=S(=O)(NC1=Nc2ccccc2CN1)c1ccc(OC(F)(F)F)cc1`
label 0

Moving on to `Cc1ccc2c(c1)N=C(NS(=O)(=O)c1cccc3ccccc13)NC2`
label 1

Moving on to CN(C)CCC=C1c2ccccc2CCc2ccccc21 [Amitriptyline, reference compound]
label 1

Moving on to CC1NC(NS(=O)(=O)c2ccc3ccccc3c2)=Nc2cc(Cl)ccc21 (stereo not shown)
label 1

Moving on to COc1ccc(C(CN(C)C)C2(O)CCCCC2)cc1 (stereo not shown) [Venlafaxine, reference compound]
label 0

---

system: 1321N1 astrocytoma cell line; assay: Antiproliferative activity (MTS), 1321N1; settings: Homo sapiens, 1321-N1, 72 h, read-out: IC50 Values 1321N1
experimental.readout: IC50

Which IC50 is reported for this molecule? O=S(=O)(NC1=Nc2cccc(Cl)c2CN1)c1ccc(Cl)c2ccccc12 [PR 53]
> 25 µM

Moving on to CC1NC(NS(=O)(=O)c2cccc3ccccc23)=Nc2cccc(Cl)c21 (stereo not shown) [PR 68]
> 25 µM

Moving on to O=S(=O)(Nc1nc2ccccc2[nH]1)c1cccc2ccccc12 [PR 11]
> 25 µM

Moving on to CC1NC(NS(=O)(=O)c2cccc3ccccc23)=Nc2c(Cl)cccc21 (stereo not shown) [PR 71]
> 25 µM

Moving on to CC1c2ccccc2N=C(NS(=O)(=O)c2cccc3ccccc23)N1C (stereo not shown) [PR 76]
> 25 µM

Moving on to CC1OC(NS(=O)(=O)c2cccc3ccccc23)=Nc2ccccc21 (stereo not shown) [PR 77]
> 25 µM

Moving on to CN(C)c1ccc2c(c1)CNC(NS(=O)(=O)c1cccc3ccccc13)=N2 [PR 64]
> 25 µM

Moving on to CC1NC(NS(=O)(=O)c2cccc3ccccc23)=Nc2cccc(F)c21 (stereo not shown) [PR 73]
> 25 µM

Moving on to O=S(=O)(NC1=Nc2ccccc2CN1)c1cccc(Cl)c1 [PR 19]
> 25 µM

Moving on to Nc1nc2ccccc2n1S(=O)(=O)c1cccc2cccnc12 [PR 9]
> 25 µM

Moving on to CC1NC(NS(=O)(=O)c2cccc3ccccc23)=Nc2ccccc21 (stereo not shown) [PR 67]
> 25 µM

Moving on to O=S(=O)(NC1=Nc2ccccc2CN1)c1cccc2c(Cl)cccc12 [PR 43]
> 25 µM

Moving on to COc1cccc2c1C(=O)c1c(O)c3c(c(O)c1C2=O)C[C@@](O)(C(=O)CO)C[C@@H]3O[C@H]1C[C@H](N)[C@H](O)[C@H](C)O1 [Doxorubicin, reference compound]
1.1 µM

---

Answer each item with its documented CHI C18 pH 7.4.
assay: Chromatographic hydrophobicity index on C18 column (lipophilicity); type: physicochemical; conditions: pH 7.4
Would you mind answering with just the numeric figure?

Which CHI C18 pH 7.4 is reported for this molecule? `Nc1nc2ccccc2n1S(=O)(=O)c1csc2ccccc12`
90.3

Moving on to `O=S(=O)(NC1=Nc2cccc(F)c2CN1)c1cccc2ccccc12`
89.4

Moving on to `O=S(=O)(NC1=Nc2ccccc2CN1)c1ccccc1Cl`
76.3

Moving on to `O=S(=O)(NC1=Nc2cc(Cl)ccc2CN1)c1cccc2ccccc12`
97.1

Moving on to `O=S(=O)(NC1=Nc2ccccc2CN1)c1cc(Cl)cc(Cl)c1`
94.6

// data source = paper PMC11477289
